Catalogue of composite z-score values
Tested on: Plasmodium falciparum Sir2 (PF13_0152, Sir2A)
Assay: Plasmodium falciparum Sir2A binding compounds – biochemical, small-molecule microarray, 635 nm fluorescence, primary screen (AID 1098);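 also: score merges spot fluorescence intensity with its signal-to-noise ratio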
Settings: fluorescence 635 nm, higher = more signal
resultType: composite z-score

1. O=C(O)[C@]1(CCS(=O)(=O)c2ccccc2)N=C(c2ccc(OCCCO)cc2)O[C@@H]1c1ccccc1: 0.74
2. CC(=O)NCCCC[C@@H]1NC(=O)[C@H]2C[C@@H](C(=O)NCCCCCN)[C@@H](c3cccc(OCCO)c3)N2C1=O: 0.878
3. COC(=O)C(CC#Cc1ccc2c(c1)[C@]1(C(=O)N2)[C@H](c2ccccc2OCCO)N2[C@H](c3ccccc3)[C@H](c3ccccc3)OC(=O)[C@H]2[C@@H]1C(=O)Nc1nc2ccccc2s1)C(=O)OC: 1.21
4. CN(C)CCCCNC(=O)[C@H]1C[C@H]2C(=O)N[C@@H](CCCC[N+](C)(C)C)C(=O)N2[C@H]1c1cccc(OCCO)c1: 1.57
5. COC(=O)[C@@]1(Cc2ccc(OC)cc2)[C@H]2c3cc(C(=O)N4CCCC4)n(Cc4ccc(C)o4)c3C[C@H]2CN1C(=O)c1ccccc1: 1.34
6. C=CC[C@]1(C(=O)N(C)C)N=C(c2ccc(OCCCO)cc2)O[C@H]1c1ccccc1: 1.05
7. C=C(/C(=C/C[C@@H](OC(=O)c1ccncc1)c1cccc(OCCO)c1)c1cc(C(=O)OC)ccc1OC)C(C)C: 1.57

###

Experiment: compound effects on multiple myeloma cell viability – MM1S, calcein-AM fluorescence, 48 h, basal, profiling panel (AID 1165);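 also: viability of MM1S multiple myeloma cells under basal unstimulated conditions; test concentration not given here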
Details: higher = more signal
resultType: z-score

1) Cc1ccc(S[C@]2(C(=O)NCCN3CCOCC3)CC(=O)N(C3Cc4ccccc4C3)[C@@H]2c2ccc(CO)cc2)cc1: -0.0655
2) C=CC[C@]1(C(=O)N2CCOCC2)N=C(c2ccc(OCCCO)cc2)O[C@H]1c1ccccc1CN=[N+]=[N-]: -0.0728
3) COc1ccc([Si](C)(C)[C@H]2[C@H](CCn3cc(CCO)nn3)O[C@@]3(C(=O)N(Cc4cccc(N5C(=O)c6cccc7cccc5c67)c4)c4ccccc43)[C@@H]2C)cc1: -2.83
4) COC(=O)[C@@]1(Cc2ccc(OC)cc2)[C@H]2c3cc(C(=O)N4CCCC4)n(CCF)c3C[C@H]2CN1C(=O)c1ccccc1: 0.0026
5) CC(C)[Si](C#C[Si](C(C)C)(C(C)C)C(C)C)(O[C@H](C)c1cn(Cc2cccc(Cl)c2)nn1)C(C)C: 0.673
6) O=C1O[C@H](c2ccccc2)[C@H](c2ccccc2)N2[C@H]1[C@@H](C(=O)N1CCCCCCC1)[C@]1(C(=O)Nc3ccccc31)[C@H]2c1ccc(O)cc1: -1.81
7) CCCCC=C[C@@H](NC(=O)CCc1ccccc1)c1ccccc1: -3.31
8) COc1ccc([Si](C)(C)[C@@H]2[C@@H](CCO)O[C@]3(C(=O)N(Cc4ccc(N5C(=O)c6ccccc6Oc6ccccc65)cc4)c4ccccc43)[C@H]2C)cc1: -2.31
9) C=CCC(OC(C)=O)[C@@H]1[C@@H](N(Cc2ccc(-c3ccccc3)cc2)C(=O)Cc2ccc(OC)cc2)c2cc(OCCCO)ccc2N1C(=O)c1ccc(-c2ccccc2)cc1 (some centres undefined): 0.366
10) C#CCNS(=O)(=O)N(C)C: 0.716
11) COCC1=C([C@H](O)CCc2ccccc2)[C@H](CO)[C@@H]2C(=O)N(C)C(=O)[C@@H]2C1: 0.347
12) CO[C@H]1O[C@H](CO)[C@@H](OC(=O)Nc2cccc(F)c2)[C@H](OC(=O)Nc2ccc3c(c2)OCO3)[C@H]1OC(=O)Nc1ccc2c(c1)OCO2: -1.17
13) COCCCNC(=O)[C@@H]1c2ccccc2C(=O)N(Cc2cc(F)cc(C(F)(F)F)c2)[C@H]1c1ccc(CO)cc1: 0.575
14) CCOC(=O)C[C@H]1[C@H](OC(=O)c2ccc(C(=O)c3ccccc3)cc2)[C@@H](NC(=O)C2CCCCC2)c2cc(OCCCO)ccc2N1C(=O)Cc1ccc(OC)cc1: -0.4

Ref: PubChem BioAssay
